Numbers sourced from patent US20110028447A1.

# target-or-system: human CB1 receptor (Homo sapiens, UniProt P21554)
# Sequence (P21554 whole entry): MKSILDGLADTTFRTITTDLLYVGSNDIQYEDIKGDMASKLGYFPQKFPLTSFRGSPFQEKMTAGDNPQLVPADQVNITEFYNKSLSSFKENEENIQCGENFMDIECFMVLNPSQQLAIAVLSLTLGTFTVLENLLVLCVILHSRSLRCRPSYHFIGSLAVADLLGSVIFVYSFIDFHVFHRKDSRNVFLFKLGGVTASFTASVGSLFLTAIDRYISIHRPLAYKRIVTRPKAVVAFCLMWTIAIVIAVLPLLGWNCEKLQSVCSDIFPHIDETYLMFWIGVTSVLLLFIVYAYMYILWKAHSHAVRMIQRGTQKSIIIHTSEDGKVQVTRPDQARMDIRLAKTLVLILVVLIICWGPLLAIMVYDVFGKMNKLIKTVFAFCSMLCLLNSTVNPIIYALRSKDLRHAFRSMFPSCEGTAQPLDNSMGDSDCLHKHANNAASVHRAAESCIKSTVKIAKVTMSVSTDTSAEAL
# test-method-notes: Human CB1 receptor binding, [3H] CP-55,940 displacement on HEK cell membranes
# Design: expressed in transfected cells; host or cells: HEK cells, doxycycline-induced; membrane preparation
# reported-conditions: CB1 Ki
Entries whose Ki is below 3 nM take Criterion met; entries at or above 3 nM take Criterion not met.

[
  {
    "compound": "CC(C)(C)[C@H](NC(=O)c1nn(Cc2ccc(F)cc2F)c2ccccc12)C(=O)NCCC(N)=O [Example 472]",
    "class-assignment": "Criterion not met"
  },
  {
    "compound": "CC(C)(C)[C@H](NC(=O)c1nn(Cc2ccc(C#N)cc2)c2ccccc12)C(=O)NCC(F)(F)F [Example 308]",
    "class-assignment": "Criterion met"
  },
  {
    "compound": "CC(C)(C)[C@H](NC(=O)c1nn(Cc2ccc(F)cc2)c2c(F)c(F)ccc12)C(=O)NC(CO)CO [Example 325]",
    "class-assignment": "Criterion met"
  }
]

Q. In plain terms, does Cc1cc2c(C(=O)N[C@H](C(=O)NCCS(N)(=O)=O)C(C)(C)C)nn(Cc3ccc(F)cc3)c2cc1F [Example 512] come in under 3 nM for Ki?
A. Criterion not met

Q. In plain terms, does CC(C)(C)[C@H](NC(=O)c1nn(Cc2ccc(F)cc2)c2ccccc12)C(=O)NC[C@@H](O)C(N)=O [Example 314] come in under 3 nM for Ki?
A. Criterion not met

Q. In plain terms, does CC(C)(C)[C@H](NC(=O)c1nn(Cc2ccc(F)cc2)c2ccccc12)C(=O)N[C@H]1CNC(=O)C1 [Example 455] come in under 3 nM for Ki?
A. Criterion not met
